Biological target: Serine/threonine-protein kinase PAK 4 (Homo sapiens) (UniProt O96013)
Sequence (O96013 whole entry, looked up): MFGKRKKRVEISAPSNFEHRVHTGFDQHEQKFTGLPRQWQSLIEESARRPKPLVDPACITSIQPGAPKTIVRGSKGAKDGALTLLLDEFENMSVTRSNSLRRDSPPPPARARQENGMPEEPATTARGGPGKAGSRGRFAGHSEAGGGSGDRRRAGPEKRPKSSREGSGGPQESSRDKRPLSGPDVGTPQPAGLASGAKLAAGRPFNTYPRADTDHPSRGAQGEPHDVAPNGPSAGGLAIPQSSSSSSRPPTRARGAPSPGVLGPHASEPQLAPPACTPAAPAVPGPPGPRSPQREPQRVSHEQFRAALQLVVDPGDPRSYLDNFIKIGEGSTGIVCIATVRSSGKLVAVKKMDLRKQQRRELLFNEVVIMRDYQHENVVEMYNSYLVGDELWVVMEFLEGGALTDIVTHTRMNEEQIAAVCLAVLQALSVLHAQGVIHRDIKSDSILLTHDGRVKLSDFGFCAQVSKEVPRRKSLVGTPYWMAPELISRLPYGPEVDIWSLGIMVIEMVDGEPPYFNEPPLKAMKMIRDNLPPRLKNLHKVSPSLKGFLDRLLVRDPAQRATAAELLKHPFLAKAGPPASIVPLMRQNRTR
Experiment: Inhibition of PAK4 assessed as residual enzyme activity at 10 uM relative to untreated control
Reported Property: Activity (%)
# number only, unit % dropped from output

A selection of reference data follows.
c1ccc2c(c1)[nH]c1c2ccc2cc[nH]c21 :: 84
O=Cc1c[nH]c2c1ccc1c3ccccc3[nH]c12 :: 88
c1ccc2c(c1)[nH]c1c3cc[nH]c3ccc21 :: 84

Now consider a different compound.
Please tell me: Activity of O=Cc1c[nH]c2ccc3c4ccccc4[nH]c3c12 , system Serine/threonine-protein kinase PAK 4 (Homo sapiens) (UniProt O96013)?
88

---

Item-by-item account of Activity
Target: Aurora kinase C (Homo sapiens)
Sequence (whole entry): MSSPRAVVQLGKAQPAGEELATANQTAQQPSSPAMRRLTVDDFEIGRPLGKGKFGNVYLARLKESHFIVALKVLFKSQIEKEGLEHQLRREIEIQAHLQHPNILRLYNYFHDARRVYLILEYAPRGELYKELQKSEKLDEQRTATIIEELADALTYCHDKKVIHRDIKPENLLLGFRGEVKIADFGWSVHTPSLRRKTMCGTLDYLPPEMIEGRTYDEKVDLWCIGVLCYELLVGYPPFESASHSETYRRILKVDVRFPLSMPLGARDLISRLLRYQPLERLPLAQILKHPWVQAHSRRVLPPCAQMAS
Experiment: Inhibition of AURORA C assessed as residual enzyme activity at 10 uM relative to untreated control
Could you kindly put the unit after your number?

A selection of reference data follows.
c1ccc2c(c1)[nH]c1c3cc[nH]c3ccc21 :: 99%
O=Cc1c[nH]c2c1ccc1c3ccccc3[nH]c12 :: 79%
c1ccc2c(c1)[nH]c1c2ccc2cc[nH]c21 :: 85%

Fill blank: measured Activity of the compound O=Cc1c[nH]c2ccc3c4ccccc4[nH]c3c12 is ____.
104%

---

Item-by-item account of Activity
Target: MAP kinase-interacting serine/threonine-protein kinase 2 (Homo sapiens) (UniProt Q9HBH9)
Sequence (Q9HBH9 whole entry, looked up): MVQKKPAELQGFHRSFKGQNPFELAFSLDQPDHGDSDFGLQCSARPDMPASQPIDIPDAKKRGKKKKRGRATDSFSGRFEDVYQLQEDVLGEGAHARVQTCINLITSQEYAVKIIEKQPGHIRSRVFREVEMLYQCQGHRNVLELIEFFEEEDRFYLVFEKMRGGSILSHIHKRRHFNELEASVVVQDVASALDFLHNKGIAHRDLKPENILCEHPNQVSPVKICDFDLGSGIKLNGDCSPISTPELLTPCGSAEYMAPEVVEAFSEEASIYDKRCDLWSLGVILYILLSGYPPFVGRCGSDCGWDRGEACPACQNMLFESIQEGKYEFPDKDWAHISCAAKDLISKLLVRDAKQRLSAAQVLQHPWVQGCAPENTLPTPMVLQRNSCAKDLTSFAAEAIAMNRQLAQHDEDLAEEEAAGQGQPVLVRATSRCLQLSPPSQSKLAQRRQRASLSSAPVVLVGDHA
Experiment: Inhibition of MNK2 assessed as residual enzyme activity at 10 uM relative to untreated control
# number only, unit % dropped from output

c1ccc2c(c1)[nH]c1c2ccc2cc[nH]c21 :: 95
O=Cc1c[nH]c2ccc3c4ccccc4[nH]c3c12 :: 109
c1ccc2c(c1)[nH]c1c3cc[nH]c3ccc21 :: 103

Please tell me: Activity of O=Cc1c[nH]c2c1ccc1c3ccccc3[nH]c12 , system MAP kinase-interacting serine/threonine-protein kinase 2 (Homo sapiens) (UniProt Q9HBH9)?
55

---

Item-by-item account of Activity
Molecular target: Proto-oncogene tyrosine-protein kinase Src (Homo sapiens) (UniProt P12931)
Sequence (P12931 2-536 limits assumed): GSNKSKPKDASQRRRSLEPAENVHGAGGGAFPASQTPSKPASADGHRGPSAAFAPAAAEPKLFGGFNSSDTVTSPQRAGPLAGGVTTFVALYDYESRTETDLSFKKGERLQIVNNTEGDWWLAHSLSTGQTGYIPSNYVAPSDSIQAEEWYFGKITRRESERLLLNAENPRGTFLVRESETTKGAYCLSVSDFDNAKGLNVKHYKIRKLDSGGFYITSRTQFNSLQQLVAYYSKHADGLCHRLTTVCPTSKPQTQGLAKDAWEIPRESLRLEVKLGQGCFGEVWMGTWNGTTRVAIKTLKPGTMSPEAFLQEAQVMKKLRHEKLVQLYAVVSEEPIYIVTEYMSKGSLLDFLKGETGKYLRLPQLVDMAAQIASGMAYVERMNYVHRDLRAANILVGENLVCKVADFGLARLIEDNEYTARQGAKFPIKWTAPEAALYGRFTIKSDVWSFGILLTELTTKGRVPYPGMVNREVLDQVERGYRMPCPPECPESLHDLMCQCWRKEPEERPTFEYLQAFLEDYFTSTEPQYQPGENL
Experiment: Inhibition of Src assessed as residual enzyme activity at 10 uM relative to untreated control
# number only, unit % dropped from output

O=Cc1c[nH]c2ccc3c4ccccc4[nH]c3c12 :: 99
c1ccc2c(c1)[nH]c1c3cc[nH]c3ccc21 :: 102
O=Cc1c[nH]c2c1ccc1c3ccccc3[nH]c12 :: 85

Now consider a different compound.
Fill blank: measured Activity of the compound c1ccc2c(c1)[nH]c1c2ccc2cc[nH]c21 is ____.
98

---

Target: Glycogen synthase kinase-3 beta (Homo sapiens) (UniProt P49841)
Sequence (P49841 whole entry, looked up): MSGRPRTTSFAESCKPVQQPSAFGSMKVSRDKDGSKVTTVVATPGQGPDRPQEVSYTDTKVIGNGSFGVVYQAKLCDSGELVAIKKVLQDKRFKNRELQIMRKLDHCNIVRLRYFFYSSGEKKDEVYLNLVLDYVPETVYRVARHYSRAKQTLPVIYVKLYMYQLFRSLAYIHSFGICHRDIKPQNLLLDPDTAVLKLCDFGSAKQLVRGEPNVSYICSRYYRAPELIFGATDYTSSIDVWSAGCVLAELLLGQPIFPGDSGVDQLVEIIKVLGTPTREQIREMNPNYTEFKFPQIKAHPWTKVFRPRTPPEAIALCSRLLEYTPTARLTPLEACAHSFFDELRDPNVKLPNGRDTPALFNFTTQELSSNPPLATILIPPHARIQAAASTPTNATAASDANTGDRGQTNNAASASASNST
Assay: Inhibition of GSK3-beta assessed as residual enzyme activity at 10 uM relative to untreated control
Reported Property: Activity (%)
# number only, unit % dropped from output

O=Cc1c[nH]c2ccc3c4ccccc4[nH]c3c12 :: 96

Please tell me: Activity of c1ccc2c(c1)[nH]c1c3cc[nH]c3ccc21 , system Glycogen synthase kinase-3 beta (Homo sapiens) (UniProt P49841)?
102

Please tell me: Activity of c1ccc2c(c1)[nH]c1c2ccc2cc[nH]c21 , system Glycogen synthase kinase-3 beta (Homo sapiens) (UniProt P49841)?
111

Please tell me: Activity of O=Cc1c[nH]c2c1ccc1c3ccccc3[nH]c12 , system Glycogen synthase kinase-3 beta (Homo sapiens) (UniProt P49841)?
88

---

Target: Serine/threonine-protein kinase pim-3 (Homo sapiens) (UniProt Q86V86)
Experiment: Inhibition of Pim-3 assessed as residual enzyme activity at 1 uM relative to untreated control
Note to self: use label 1 only for Activity readings below 60%; a reading exactly at 60% still gets label 0.

O=Cc1c[nH]c2c1ccc1c3cc(-c4ccc(C(F)(F)F)cc4)ccc3[nH]c12 :: label 0

Could you please tell me whether Activity recorded for Brc1ccc2[nH]c3c(ccc4cc[nH]c43)c2c1 is less than 60%?
label 1

Could you please tell me whether Activity recorded for O=Cc1c[nH]c2c1ccc1c3cc(-c4ccc(F)cc4)ccc3[nH]c12 is less than 60%?
label 1

Could you please tell me whether Activity recorded for OCc1c[nH]c2c1ccc1c3ccccc3[nH]c12 is less than 60%?
label 0

Could you please tell me whether Activity recorded for CCN(CC)C(=O)/C(=N\O)c1c[nH]c2c1ccc1c3ccccc3[nH]c12 is less than 60%?
label 0

Could you please tell me whether Activity recorded for O=Cc1c[nH]c2c1ccc1c3cc(Br)ccc3[nH]c12 is less than 60%?
label 1

Could you please tell me whether Activity recorded for COc1cccc(-c2ccc3[nH]c4c(ccc5c(C=O)c[nH]c54)c3c2)c1 is less than 60%?
label 1

Could you please tell me whether Activity recorded for O=Cc1c[nH]c2c1ccc1c3cc(-c4ccccc4)ccc3[nH]c12 is less than 60%?
label 1

Could you please tell me whether Activity recorded for O=Cc1c[nH]c2c1ccc1c3cc(-c4ccc(-c5ccccc5)cc4)ccc3[nH]c12 is less than 60%?
label 0

Could you please tell me whether Activity recorded for O=Cc1c[nH]c2c1ccc1c3cc(-c4ccc(OC(F)(F)F)cc4)ccc3[nH]c12 is less than 60%?
label 0

---

Biological target: MAP kinase-interacting serine/threonine-protein kinase 1 (Homo sapiens) (UniProt Q9BUB5)
Sequence (Q9BUB5 whole entry, looked up): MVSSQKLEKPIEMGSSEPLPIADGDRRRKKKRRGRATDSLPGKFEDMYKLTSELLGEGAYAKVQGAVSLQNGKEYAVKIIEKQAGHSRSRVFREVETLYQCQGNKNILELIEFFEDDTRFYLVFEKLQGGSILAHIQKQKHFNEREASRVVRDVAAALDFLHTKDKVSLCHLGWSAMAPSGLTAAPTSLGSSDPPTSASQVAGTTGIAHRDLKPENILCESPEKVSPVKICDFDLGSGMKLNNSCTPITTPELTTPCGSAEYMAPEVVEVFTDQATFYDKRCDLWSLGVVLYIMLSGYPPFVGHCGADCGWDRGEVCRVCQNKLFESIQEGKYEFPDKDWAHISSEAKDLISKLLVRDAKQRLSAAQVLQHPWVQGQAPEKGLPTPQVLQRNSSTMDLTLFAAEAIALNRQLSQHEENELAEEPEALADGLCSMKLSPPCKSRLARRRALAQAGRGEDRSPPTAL
Assay: Inhibition of MNK1 assessed as residual enzyme activity at 10 uM relative to untreated control
Item-by-item account of Activity
# number only, unit % dropped from output

O=Cc1c[nH]c2c1ccc1c3ccccc3[nH]c12 :: 27
c1ccc2c(c1)[nH]c1c2ccc2cc[nH]c21 :: 69
O=Cc1c[nH]c2ccc3c4ccccc4[nH]c3c12 :: 106

Fill blank: measured Activity of the molecule c1ccc2c(c1)[nH]c1c3cc[nH]c3ccc21 is ____.
101

---

Target: Mitogen-activated protein kinase 15 (Homo sapiens) (UniProt Q8TD08)
Sequence (Q8TD08 whole entry): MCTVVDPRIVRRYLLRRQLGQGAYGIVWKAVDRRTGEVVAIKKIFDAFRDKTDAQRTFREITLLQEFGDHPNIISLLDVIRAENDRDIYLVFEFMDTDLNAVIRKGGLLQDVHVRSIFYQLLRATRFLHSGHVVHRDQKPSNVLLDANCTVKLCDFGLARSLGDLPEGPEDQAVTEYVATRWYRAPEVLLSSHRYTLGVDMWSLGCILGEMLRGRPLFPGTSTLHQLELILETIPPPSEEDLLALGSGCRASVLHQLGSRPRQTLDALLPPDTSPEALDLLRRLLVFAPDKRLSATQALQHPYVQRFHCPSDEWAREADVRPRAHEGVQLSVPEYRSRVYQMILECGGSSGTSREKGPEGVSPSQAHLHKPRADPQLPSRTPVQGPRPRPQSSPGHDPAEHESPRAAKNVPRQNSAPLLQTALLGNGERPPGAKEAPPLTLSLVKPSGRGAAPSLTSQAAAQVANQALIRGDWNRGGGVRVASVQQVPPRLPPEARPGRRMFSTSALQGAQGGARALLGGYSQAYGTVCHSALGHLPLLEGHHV
Assay: Inhibition of ERK8 assessed as residual enzyme activity at 10 uM relative to untreated control
Reported Property: Activity (%)
# number only, unit % dropped from output

Fill blank: measured Activity of the molecule O=Cc1c[nH]c2ccc3c4ccccc4[nH]c3c12 is ____.
112

Fill blank: measured Activity of the molecule O=Cc1c[nH]c2c1ccc1c3ccccc3[nH]c12 is ____.
20

Fill blank: measured Activity of the molecule c1ccc2c(c1)[nH]c1c3cc[nH]c3ccc21 is ____.
47

Fill blank: measured Activity of the molecule c1ccc2c(c1)[nH]c1c2ccc2cc[nH]c21 is ____.
55

---

Molecular target: MAP kinase-activated protein kinase 3 (Homo sapiens) (UniProt Q16644)
Sequence (Q16644 whole entry, looked up): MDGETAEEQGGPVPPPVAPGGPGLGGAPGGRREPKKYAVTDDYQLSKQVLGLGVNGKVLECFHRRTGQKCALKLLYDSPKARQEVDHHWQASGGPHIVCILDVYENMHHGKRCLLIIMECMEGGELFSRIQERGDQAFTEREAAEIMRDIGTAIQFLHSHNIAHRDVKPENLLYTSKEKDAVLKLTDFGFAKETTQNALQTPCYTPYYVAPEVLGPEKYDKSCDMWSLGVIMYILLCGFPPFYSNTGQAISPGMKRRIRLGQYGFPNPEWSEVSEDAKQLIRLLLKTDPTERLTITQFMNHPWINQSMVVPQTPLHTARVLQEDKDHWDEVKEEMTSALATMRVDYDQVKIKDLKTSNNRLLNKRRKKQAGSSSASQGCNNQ
Assay: Inhibition of MAPKAPK3 assessed as residual enzyme activity at 10 uM relative to untreated control
Reported Property: Activity

c1ccc2c(c1)[nH]c1c2ccc2cc[nH]c21 :: 89%
O=Cc1c[nH]c2c1ccc1c3ccccc3[nH]c12 :: 69%
O=Cc1c[nH]c2ccc3c4ccccc4[nH]c3c12 :: 90%

Now consider a different compound.
Fill blank: measured Activity of the compound c1ccc2c(c1)[nH]c1c3cc[nH]c3ccc21 is ____.
88%

---

Molecular target: MAP kinase-activated protein kinase 5 (Homo sapiens)
Sequence (whole entry): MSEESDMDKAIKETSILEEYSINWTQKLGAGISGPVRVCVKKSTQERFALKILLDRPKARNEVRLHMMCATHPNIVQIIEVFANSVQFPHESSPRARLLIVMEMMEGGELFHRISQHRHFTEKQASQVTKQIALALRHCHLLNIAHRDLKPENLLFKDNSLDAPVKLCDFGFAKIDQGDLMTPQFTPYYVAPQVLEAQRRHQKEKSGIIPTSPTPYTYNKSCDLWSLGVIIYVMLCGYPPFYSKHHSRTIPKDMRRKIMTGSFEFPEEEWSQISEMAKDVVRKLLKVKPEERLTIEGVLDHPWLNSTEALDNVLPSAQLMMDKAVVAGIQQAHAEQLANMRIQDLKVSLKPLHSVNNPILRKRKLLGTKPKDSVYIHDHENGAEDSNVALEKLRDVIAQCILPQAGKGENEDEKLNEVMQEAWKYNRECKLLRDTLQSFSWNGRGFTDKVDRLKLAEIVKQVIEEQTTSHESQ
Assay: Inhibition of PRAK assessed as residual enzyme activity at 10 uM relative to untreated control
Reported Property: Activity (%)
# number only, unit % dropped from output

A selection of reference data follows.
O=Cc1c[nH]c2c1ccc1c3ccccc3[nH]c12 :: 72
O=Cc1c[nH]c2ccc3c4ccccc4[nH]c3c12 :: 114
c1ccc2c(c1)[nH]c1c2ccc2cc[nH]c21 :: 97

Now consider a different compound.
Please tell me: Activity of c1ccc2c(c1)[nH]c1c3cc[nH]c3ccc21 , system MAP kinase-activated protein kinase 5 (Homo sapiens)?
114
